- target under test: MAGI2_5, Q86UL8
- Sequence (Q86UL8 915-1017): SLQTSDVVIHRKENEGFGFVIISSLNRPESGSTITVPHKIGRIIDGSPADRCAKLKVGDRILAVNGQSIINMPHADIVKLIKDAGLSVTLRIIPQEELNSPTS
- assay info: holdup assay
- Set-up: key: below the threshold = too weak to quantify, mostly under pKd 3.1 to 4
- cond: plain residues with an end cap or a label only (N-terminal biotin on a linker: ttds)
Task for the reader: assign each of the following binders its reported pKd.
Numbers only.

RHTTSTETAV [HPV30-E6, P36809]
4.31
SGSRPSATVV [HPV73-E6, Q82005]
3.7
PVRVCEETSL [OTULIN, Q96BN8]
4.13
DKDPHSETAL [TMIGD1, Q6UXZ0]
3.67
SKPTRRETEV [HPV35-E6, P27228]
4.18

Dear reader, for each entry below, please note its pKd.
1. SSLQSLETSV [ATP2B4, P23634]
2. KKYVDAETSL [SLC4A7, Q9Y6M7]

[out]
1: 4.6; 2: 3.52

[in] What does the record list as pKd for RLQRRRETQV [HPV18-E6, P06463] ?
[out] 3.78
